The values you see were collected from the supplement of paper PMC9233669.

System: biotinyl-Met-oxazolone
experiment-description: self-aminoacylation, catalytic enhancement (BMO) (fold over background); higher = more active; k-Seq, kA / k0A0; sequences stand for … in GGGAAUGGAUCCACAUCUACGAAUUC…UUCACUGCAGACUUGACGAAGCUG
Fewer inactive variants are shown than the library holds.
Decision: self-aminoacylation compared against 0.9; not below it gives y, below it gives n.

CGAUUUCAAACAAUCGGUCUG [Fam1A.1 aminoacylation ribozyme variant]
y
AAGCUUGCUAAUACUCGCAAG [Fam3.1 aminoacylation ribozyme variant]
n
CGACUUCACACAAUCGGUCUG [Fam1A.1 aminoacylation ribozyme variant]
y
CCACACUUCAAGCGAUCGGUC [Fam1B.1 aminoacylation ribozyme variant]
n

Shifting focus to the sequence that follows.
Query: Could you please find out whether AUUCACCUAUGUCAUCGGGCG [Fam2.2 aminoacylation ribozyme variant] has self-aminoacylation that meets 0.9 or exceeds it?
Reply: y

---

self-aminoacylation: recorded values
Test system: biotinyl-Trp-oxazolone
experiment-description: self-aminoacylation, catalytic enhancement (BWO) (fold over background); higher = more active; k-Seq, kA / k0A0; sequences stand for … in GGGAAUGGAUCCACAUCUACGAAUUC…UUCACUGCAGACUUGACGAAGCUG
Fewer inactive variants are shown than the library holds.

AUUCACCUAGGUUCUCGGGUG [Fam2.2 aminoacylation ribozyme variant]
2.44
ACUCAUCUAGGUCAUCGGGUG [Fam2.2 aminoacylation ribozyme variant]
7.26
AAGUUUGCUAAUGGUCGCAAA [Fam3.1 aminoacylation ribozyme variant]
2.87
CUACUUAAAACAAUCGUUCUG [Fam1A.1 aminoacylation ribozyme variant]
0.503
CAGUUUGCUGAUAGUCGCAAG [Fam3.1 aminoacylation ribozyme variant]
1.99
AAAUUUGCUAAGAGUCGCAAG [Fam3.1 aminoacylation ribozyme variant]
2.51
GUUACCCUGGUUAUCGAGUGA [Fam2.1 aminoacylation ribozyme variant]
13
AUUACCCAGAUCAUCGAGUGA [Fam2.1 aminoacylation ribozyme variant]
7.37

Here is the next item to consider.
Query: What value of self-aminoacylation has been recorded for this entry: AAGUAUGUUAAUAGUCGCAAG [Fam3.1 aminoacylation ribozyme variant]
Reply: 1.38

---

Parameter self-aminoacylation: see the listing below.
System: biotinyl-Met-oxazolone
experiment-description: self-aminoacylation, catalytic enhancement (BMO) (fold over background); higher = more active; k-Seq, kA / k0A0; sequences stand for … in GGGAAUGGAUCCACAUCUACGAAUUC…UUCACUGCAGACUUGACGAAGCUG
Variants at the floor of the assay were thinned out.
Number only, please.

For orientation, consider the following solved cases.
CCCCACUUCAAGCAAUCGGAC [Fam1B.1 aminoacylation ribozyme variant]
1.44
CAACUUCAAACAAUCGGUAUG [Fam1A.1 aminoacylation ribozyme variant]
1.31

Next sequence, self-aminoacylation to be filled in.
Query: Query (sequence): CUACUUCAACCAUUCGGUCUG [Fam1A.1 aminoacylation ribozyme variant] ; field requested: self-aminoacylation
Reply: 1.17

---

System: biotinyl-Met-oxazolone
experiment-description: self-aminoacylation, catalytic enhancement (BMO) (fold over background); higher = more active; k-Seq, kA / k0A0; sequences stand for … in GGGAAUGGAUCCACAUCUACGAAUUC…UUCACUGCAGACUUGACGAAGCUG
Fewer inactive variants are shown than the library holds.
Measured self-aminoacylation by item
# output: bare number, no unit

Query: State the recorded self-aminoacylation for this entry: AACUUUGCUAAUAGGCGCAAG [Fam3.1 aminoacylation ribozyme variant]
Reply: 1.7

Query: Entry to check: CUACUUCAAAAAAUCAGUCUG [Fam1A.1 aminoacylation ribozyme variant]
Reply: 0.744

---

System: biotinyl-Leu-oxazolone
experiment-description: self-aminoacylation, catalytic enhancement (BLO) (fold over background); higher = more active; k-Seq, kA / k0A0; sequences stand for … in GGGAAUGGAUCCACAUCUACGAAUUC…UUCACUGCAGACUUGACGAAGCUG
Fewer inactive variants are shown than the library holds.
Classify on self-aminoacylation using b0 = under 1, b1 = from 1 up to 2, b2 = 2 and over

CUACUUCACACACUCGGUCUG [Fam1A.1 aminoacylation ribozyme variant]
b1
CCAAACUUCAAGCAAUCGGUC [Fam1B.1 aminoacylation ribozyme variant]
b1
AUUGACCUAGGUUAUCGGGUG [Fam2.2 aminoacylation ribozyme variant]
b2
AUUCACAUAGGUCGUCGGGUG [Fam2.2 aminoacylation ribozyme variant]
b2
AUGACCCGGGUCAUCGAGUGA [Fam2.1 aminoacylation ribozyme variant]
b2

Query: Just checking, what class would you give AUUAUCCUGGUCAUCGAGAGA [Fam2.1 aminoacylation ribozyme variant] here?
Reply: b0

Query: Also CCACAGUUCAACCAAUCGGUC [Fam1B.1 aminoacylation ribozyme variant] ?
Reply: b1

Query: How about this sequence: CCACACUUCAACCAAUCCGUC [Fam1B.1 aminoacylation ribozyme variant]
Reply: b0

Query: Similarly, CAACACUUCAAGCGAUCGGUC [Fam1B.1 aminoacylation ribozyme variant] ?
Reply: b1

Query: Would you mind doing AUCACCCUGGUCAGCGAGUGA [Fam2.1 aminoacylation ribozyme variant] as well?
Reply: b2

---

System: biotinyl-Val-oxazolone
experiment-description: self-aminoacylation, catalytic enhancement (BVO) (fold over background); higher = more active; k-Seq, kA / k0A0; sequences stand for … in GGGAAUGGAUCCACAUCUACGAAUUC…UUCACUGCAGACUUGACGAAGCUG
Fewer inactive variants are shown than the library holds.
# if value of self-aminoacylation reaches 3, tag Satisfied; if it stays below, tag Not satisfied

Solved entries:
AUUGACCUAGGUUAUCGGGUG [Fam2.2 aminoacylation ribozyme variant]
Satisfied
AUUACCCUGGUCACCGAAUGA [Fam2.1 aminoacylation ribozyme variant]
Not satisfied
CUGCUUCAAACAAUUGGUCUG [Fam1A.1 aminoacylation ribozyme variant]
Not satisfied
CUCCUUCAAACAUUCGGUCUG [Fam1A.1 aminoacylation ribozyme variant]
Not satisfied
CAGUUUGCUAAUAGUCGCCAG [Fam3.1 aminoacylation ribozyme variant]
Not satisfied
AUUAGUCUGGUCAUCGAGUGA [Fam2.1 aminoacylation ribozyme variant]
Not satisfied
CCAUACUACAAGCAAUCGGUC [Fam1B.1 aminoacylation ribozyme variant]
Not satisfied
AUUACCCUGGUCGUCGAGUGC [Fam2.1 aminoacylation ribozyme variant]
Not satisfied

Query: Please tell me: is the sequence AGUACCCUGGUCAUCAAGUGA [Fam2.1 aminoacylation ribozyme variant] at or over 3 in terms of self-aminoacylation?
Reply: Not satisfied

Query: And for AUACACCUAGGUCAUCGGGUA [Fam2.2 aminoacylation ribozyme variant] ?
Reply: Satisfied

Query: And for AAGUUUGCUAAUAGUCGCCAG [Fam3.1 aminoacylation ribozyme variant] ?
Reply: Not satisfied

Query: Same read-out for AUUACCCUGGUAAUCGGGUGA [Fam2.1 aminoacylation ribozyme variant] ?
Reply: Satisfied

---

System: biotinyl-Val-oxazolone
experiment-description: self-aminoacylation, catalytic enhancement (BVO) (fold over background); higher = more active; k-Seq, kA / k0A0; sequences stand for … in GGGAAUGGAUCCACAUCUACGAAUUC…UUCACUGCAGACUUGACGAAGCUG
This sample holds only a part of the variants without activity.
attribute-measured: self-aminoacylation
Output spec: single numeric token, no unit.

# count of solved cases: 8
CCACCCUUCAAGCAUUCGGUC [Fam1B.1 aminoacylation ribozyme variant]
2.56
CCACACUUCAACCAAUCGGUG [Fam1B.1 aminoacylation ribozyme variant]
2.91
AAGUUUGCUAAUUGUCGCCAG [Fam3.1 aminoacylation ribozyme variant]
1.39
AUUACCCUGGUGAUCGAGUGU [Fam2.1 aminoacylation ribozyme variant]
1.57
CUACUUCAAACAGUCGGUCUU [Fam1A.1 aminoacylation ribozyme variant]
0.819
CCCCACUUGAAGCAAUCGGUC [Fam1B.1 aminoacylation ribozyme variant]
2.23
CUAAACUUCAAGCAAUCGGUC [Fam1B.1 aminoacylation ribozyme variant]
1.03
AAGUUAGCAAAUAGUCGCAAG [Fam3.1 aminoacylation ribozyme variant]
1.23

Query: Any idea what self-aminoacylation was measured for AUUCACCAAGGUCACCGGGUG [Fam2.2 aminoacylation ribozyme variant] ?
Reply: 6.12

Query: Next record, please: AAGAUUGCUAAUAUUCGCAAG [Fam3.1 aminoacylation ribozyme variant]
Reply: 1.5

Query: Now the sequence AUUCACAUAGUUCAUCGGGUG [Fam2.2 aminoacylation ribozyme variant]
Reply: 2.3

Query: Repeat with AUUCACCUAUGUCAUCGGAUG [Fam2.2 aminoacylation ribozyme variant]
Reply: 0.758

Query: Now the same for AUUCACCUAGUUCAUCGGGUG [Fam2.2 aminoacylation ribozyme variant]
Reply: 2.15

Query: Try this sequence next: CGACACUUCAAGCACUCGGUC [Fam1B.1 aminoacylation ribozyme variant]
Reply: 1.32
